procedure_summary: physchem
applied_conditions: octanol/water, pH 7.4
Each entry below carries its recorded logD.

C#CC(C)n1[nH]c(=O)c2[nH]c3cc(Cl)ccc3c(=O)c2c1=O (centres undefined) | < 0.5

What value of measured logD is listed for O=C(O)c1ccc(Cn2[nH]c(=O)c3[nH]c4cc(Cl)ccc4c(=O)c3c2=O)cc1 ?
< 0.5

Consider next the compound O=c1[nH]n(Cc2nccs2)c(=O)c2c(=O)c3ccc(Cl)cc3[nH]c12 in the same way.
< 0.5

How about CC(c1ccncc1)n1[nH]c(=O)c2[nH]c3cc(Cl)ccc3c(=O)c2c1=O.CS(=O)(=O)O (racemic) ?
< 0.3
